Would you mind telling me the reported growth of each entry?
Test system: SNB-75 CNS
assay: NCI-60 one-dose screen, 48 h (100 = growth as untreated, 0 = no growth, -100 = all killed)
assay-conditions: 10 µM unless noted
About 83,000 compounds went through this panel and 20% of them were active in at least one assay; those are over-represented in the sample as a whole. The source made the active and inactive calls. Rule for the calls: active = growth percent below 10; inactive = the rest.

Request body: readout growth, system SNB-75 CNS, query COc1cc(/C=C/C(=O)c2cnn(-c3cc(=O)[nH]c4ccc(Br)cc34)c2C)cc(OC)c1OC . Return the value.
9.81% (active)

Hello, I am looking for reported growth with SNB-75 CNS for O=C(CSc1nc2ccccc2c(=O)[nH]1)NNC(=O)c1ccccc1Cl . Could you help?
72.6% (inactive)

Find the measured growth: item O=C(CSc1nc2ccccc2c(=O)[nH]1)Nc1ccccc1C(=O)O , target or system SNB-75 CNS.
139% (inactive)

Requested read-out growth, target or system SNB-75 CNS, entry CS(=O)(=O)Nc1cc(-c2ccc3ncnc(Nc4ccc(OCc5cccnc5)c(Cl)c4)c3c2)cnc1Cl
10.7% (inactive)

Hello, I am looking for reported growth with SNB-75 CNS for O=C(Cn1c(/C=C/c2ccc([N+](=O)[O-])cc2)nc2ccccc2c1=O)Nc1ccccc1 . Could you help?
38.5% (inactive)

Notebook entry, SNB-75 CNS assay: growth of COc1ccc(N=Nc2c(N)nn3c(-c4cc5ccccc5oc4=O)ccnc23)cc1 = ?
33.6% (inactive)

Give growth (SNB-75 CNS) of the following compound: Cc1nc2sccn2c1-c1nnc(SCC(C)C)o1
73.7% (inactive)
